# TEST TARGET: human β3 adrenergic receptor (Homo sapiens, UniProt P13945)
# Construct: Full length β3 AR clones (402 amino acids) containing the last 6 amino acids of hβ3-AR are prepared; expressed in transfected cells; host or cells: CHO (Chinese hamster ovary) cells
# Sequence (P13945 whole entry): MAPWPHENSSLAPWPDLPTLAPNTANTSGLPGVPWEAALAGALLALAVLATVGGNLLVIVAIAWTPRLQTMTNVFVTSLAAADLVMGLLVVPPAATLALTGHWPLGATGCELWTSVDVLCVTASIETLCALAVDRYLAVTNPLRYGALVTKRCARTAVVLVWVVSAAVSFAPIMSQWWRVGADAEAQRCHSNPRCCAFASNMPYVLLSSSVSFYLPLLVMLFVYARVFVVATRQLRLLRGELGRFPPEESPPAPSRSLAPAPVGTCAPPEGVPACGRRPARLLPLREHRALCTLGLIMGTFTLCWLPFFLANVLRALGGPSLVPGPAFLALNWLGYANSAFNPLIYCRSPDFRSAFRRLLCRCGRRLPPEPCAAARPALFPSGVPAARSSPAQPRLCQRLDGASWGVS
# ASSAY: cAMP (SPA) response in CHO cells transfected with human β3 adrenergic receptor
# Format: cell-based
# Set-up: key: fraction of maximal isoproterenol (10^-5 M) response
# DETAILS: maximal response relative to maximal response of isoproterenol at 10^-5 M
Could you mark each record True if its IA(β3) falls strictly under 1, and False if it equals or exceeds it?

Observe how each entry below is paired with its result.
O=C1NC(=O)C(Cc2ccc(N3CCC(NCC(O)COc4ccc(OCc5ccccc5)cc4)CC3)cc2)S1 (centres unmarked); True
COc1ccc(S(=O)(=O)Nc2ccc(N3CCC(NC[C@H](O)COc4cccc5[nH]c(=O)[nH]c45)CC3)cc2)cc1OC; True
CS(=O)(=O)Nc1cc(C(O)CNC2CCN(c3ccc(NS(=O)(=O)c4ccc(-c5ccccn5)s4)cc3)CC2)ccc1O (centres unmarked); False
O=c1[nH]c2cccc(OC[C@@H](O)CNC3CCN(c4ccc(NS(=O)(=O)c5ccc(-c6ccon6)s5)cc4)CC3)c2[nH]1; True
CCCCS(=O)(=O)Nc1ccc(N2CCC(NC[C@H](O)COc3ccc(O)c(NS(=O)(=O)c4ccccc4)c3)CC2)cc1; False

Q. Take the compound COc1ccc(S(=O)(=O)Nc2ccc(N3CCC(NC[C@H](O)COc4cccc5[nH]c6ccccc6c45)CC3)cc2)cc1OC and say whether its IA(β3) is less than 1.
A. True

Q. Take the compound COc1ccc(S(=O)(=O)Nc2ccc(N3CCC(NC[C@H](O)COc4ccc(O)c(NS(C)(=O)=O)c4)CC3)cc2)cc1OC and say whether its IA(β3) is less than 1.
A. False

----------
The following compounds are shown together with reported IA(β3) values.
# TEST TARGET: human β3 adrenergic receptor (Homo sapiens, UniProt P13945)
# Construct: Full length β3 AR clones (402 amino acids) containing the last 6 amino acids of hβ3-AR are prepared; expressed in transfected cells; host or cells: CHO (Chinese hamster ovary) cells
# ASSAY: cAMP (SPA) response in CHO cells transfected with human β3 adrenergic receptor
# Format: cell-based
# Parameters: key: fraction of maximal isoproterenol (10^-5 M) response
# DETAILS: maximal response relative to maximal response of isoproterenol at 10^-5 M
The answer should be written as a number, with no unit following it.

Example results:
O=C1NC(=S)SC1=Cc1ccc(N2CCC(NC[C@H](O)COc3ccc(O)cc3)CC2)cc1 [Example 82]; 1.07
CCCCCCNC(=O)Nc1ccc(S(=O)(=O)Nc2ccc(N3CCC(NC[C@H](O)COc4ccc(O)c(NS(C)(=O)=O)c4)CC3)cc2)cc1 [Example 310]; 1
O=C1NC(=S)SC1=Cc1ccc(N2CCC(NC[C@H](O)COc3ccccc3)CC2)cc1 [Example 72]; 0.68

Q. Name the recorded IA(β3) for O=C1NC(=O)C(Cc2ccc(N3CCC(NC[C@H](O)COc4cccc5[nH]c(=O)[nH]c45)CC3)c(F)c2)S1 (some centres unmarked) [Example 67] .
A. 1.06

Q. Name the recorded IA(β3) for CC(=O)Nc1ccc(S(=O)(=O)Nc2ccc(N3CCC(NCC(O)c4cccc(O)c4)CC3)cc2)cc1 (centres unmarked) [Example 257] .
A. 0.88

Q. Name the recorded IA(β3) for CS(=O)(=O)Nc1cc(C(O)CNC2CCN(c3ccc(C=C4NC(=O)NC4=O)cc3)CC2)ccc1O (centres unmarked) [Example 85] .
A. 0.94

Q. Name the recorded IA(β3) for O=c1[nH]c2cccc(OC[C@@H](O)CNC3CCN(c4ccc(NS(=O)(=O)c5cccs5)cc4)CC3)c2[nH]1 [Example 362] .
A. 0.9

Q. Name the recorded IA(β3) for CCCCN(CC(=O)OCC)C(=O)c1ccc(N2CCC(NC[C@H](O)c3ccc(O)c(NS(C)(=O)=O)c3)CC2)cc1 [Example 207] .
A. 1

Q. Name the recorded IA(β3) for CCCCOc1ccc(S(=O)(=O)Nc2ccc(N3CCC(NC[C@H](O)COc4cccc5[nH]c(=O)[nH]c45)CC3)cc2)cc1 [Example 358] .
A. 1.1

Q. Name the recorded IA(β3) for O=C1NC(=O)C(Cc2ccc(N3CCC(NC[C@H](O)COc4ccccc4)CC3)cc2)S1 (some centres unmarked) [Example 73] .
A. 0.71

Q. Name the recorded IA(β3) for CCCCS(=O)(=O)Nc1ccc(N2CCC(NC[C@H](O)COc3ccc(O)c4c3CCC(=O)N4)CC2)cc1 [Example 306] .
A. 1.1

----------
# TEST TARGET: human β3 adrenergic receptor (Homo sapiens, UniProt P13945)
# Construct: Full length β3 AR clones (402 amino acids) containing the last 6 amino acids of hβ3-AR are prepared; expressed in transfected cells; host or cells: CHO (Chinese hamster ovary) cells
# ASSAY: cAMP (SPA) response in CHO cells transfected with human β3 adrenergic receptor
# Format: cell-based
# Parameters: key: fraction of maximal isoproterenol (10^-5 M) response
# DETAILS: maximal response relative to maximal response of isoproterenol at 10^-5 M
The following molecules are shown together with reported IA(β3) values.
The answer should be written as a number, with no unit following it.

Q. Name the recorded IA(β3) for O=[N+]([O-])c1ccc(Oc2c(Cl)cc(S(=O)(=O)Nc3ccc(N4CCC(NC[C@H](O)COc5ccccc5)CC4)cc3)cc2Cl)c(Cl)c1 .
A. 0.97

----------
# TEST TARGET: human β3 adrenergic receptor (Homo sapiens, UniProt P13945)
# Construct: Full length β3 AR clones (402 amino acids) containing the last 6 amino acids of hβ3-AR are prepared; expressed in transfected cells; host or cells: CHO (Chinese hamster ovary) cells
# ASSAY: cAMP (SPA) response in CHO cells transfected with human β3 adrenergic receptor
# Type: cell-based
# Set-up: key: fraction of maximal isoproterenol (10^-5 M) response
# DETAILS: maximal response relative to maximal response of isoproterenol at 10^-5 M
MEASURED ENDPOINT: IA(β3)
The answer should be written as a number, with no unit following it.

CS(=O)(=O)Nc1cc([C@@H](O)CNC2CCN(c3ccc(NS(=O)(=O)c4cccnc4)cc3)CC2)ccc1O; 1.3

Q. Name the recorded IA(β3) for O=c1[nH]c2cccc(OC[C@@H](O)CNC3CCN(c4ccc(NS(=O)(=O)c5ccc(Oc6ncc(C(F)(F)F)cc6Cl)cc5)cc4)CC3)c2[nH]1 .
A. 1.26

Q. Name the recorded IA(β3) for CC(C)C[C@H](NC(=O)c1ccc(N2CCC(NC[C@H](O)c3ccc(O)c(NS(C)(=O)=O)c3)CC2)cc1)C(=O)O .
A. 1

Q. Name the recorded IA(β3) for CCOC(=O)c1ccc(N2CCC(NC[C@H](O)c3cccc(Cl)c3)CC2)cc1.Cl .
A. 0.56

----------
# TEST TARGET: human β3 adrenergic receptor (Homo sapiens, UniProt P13945)
# Construct: Full length β3 AR clones (402 amino acids) containing the last 6 amino acids of hβ3-AR are prepared; expressed in transfected cells; host or cells: CHO (Chinese hamster ovary) cells
# ASSAY: cAMP (SPA) response in CHO cells transfected with human β3 adrenergic receptor
# Format: cell-based
# Parameters: key: fraction of maximal isoproterenol (10^-5 M) response
# DETAILS: maximal response relative to maximal response of isoproterenol at 10^-5 M
The following compounds are shown together with reported IA(β3) values.
The answer should be written as a number, with no unit following it.

Example results:
CCCCOc1ccc(S(=O)(=O)Nc2ccc(N3CCC(NCC(O)c4ccc(O)c(NS(C)(=O)=O)c4)CC3)cc2)cc1 (centres unmarked); 1.14
CS(=O)(=O)Nc1cc([C@@H](O)CNC2CCN(c3ccc(/C=C/C(=O)O)cc3)CC2)ccc1O; 1.36
O=c1[nH]c2cccc(OC[C@@H](O)CNC3CCN(c4ccc(NS(=O)(=O)c5sc(Cl)cc5Br)cc4)CC3)c2[nH]1; 0.91
CC(=O)Nc1ccc(S(=O)(=O)Nc2ccc(N3CCC(NC[C@H](O)COc4cccc5[nH]c(=O)[nH]c45)CC3)cc2)cc1; 1.15

Next compound, IA(β3) to be filled in.
Q. Name the recorded IA(β3) for N=C1NC(=O)C(Cc2ccc(N3CCC(NC[C@H](O)COc4cccc5[nH]c(=O)[nH]c45)CC3)cc2)S1 (some centres unmarked) .
A. 1.1
